Recorded relative signal [%] for the following substances
test system: myasthenogenic antibody mAB 198; experiment: Peptide microarray mimotope screen, binding of mAB 198 to linear and cyclic peptides (fluorescence readout); parameters: species or system rat; conditions: cyclic mimotopes; binding of mAB 198, relative fluorescent signal after normalization against background
Report the value in % with no unit label.

stdin: I am curious: what relative signal [%] value has been reported for 183 (RLRPNPADY) [compound 183] ?
stdout: 9.8

stdin: I am curious: what relative signal [%] value has been reported for 190 (RWNPADF) [compound 190] ?
stdout: 9.1

stdin: I am curious: what relative signal [%] value has been reported for 125 (LRRNPADYG) [compound 125] ?
stdout: 23.4

stdin: I am curious: what relative signal [%] value has been reported for 154 (GSLRWNPADYP) [compound 154] ?
stdout: 12.4

stdin: I am curious: what relative signal [%] value has been reported for 199 (RLRTNPADY) [compound 199] ?
stdout: 8.6

Next:
stdin: I am curious: what relative signal [%] value has been reported for 132 (RLRFNPADY) [compound 132] ?
stdout: 21.3

stdin: I am curious: what relative signal [%] value has been reported for 108 (RLRGNPADY) [compound 108] ?
stdout: 32.7

stdin: I am curious: what relative signal [%] value has been reported for 111 (RINPADY) [compound 111] ?
stdout: 28.9

stdin: I am curious: what relative signal [%] value has been reported for 140 (RPNPADY) [compound 140] ?
stdout: 15.6

stdin: I am curious: what relative signal [%] value has been reported for 142 (VRLRRNPAD) [compound 142] ?
stdout: 14.7

stdin: I am curious: what relative signal [%] value has been reported for 120 (DVRLRGNPADY) [compound 120] ?
stdout: 25.0

stdin: I am curious: what relative signal [%] value has been reported for 124 (RRNPADY) [compound 124] ?
stdout: 23.5

stdin: I am curious: what relative signal [%] value has been reported for 127 (LRINPADYG) [compound 127] ?
stdout: 22.8

stdin: I am curious: what relative signal [%] value has been reported for 149 (LRWNPADYP) [compound 149] ?
stdout: 13.1

stdin: I am curious: what relative signal [%] value has been reported for 180 (TLRWNPADY) [compound 180] ?
stdout: 9.9

stdin: I am curious: what relative signal [%] value has been reported for 164 (RLHWNPADY) [compound 164] ?
stdout: 10.8

stdin: I am curious: what relative signal [%] value has been reported for 139 (NPADYGH) [compound 139] ?
stdout: 15.8

stdin: I am curious: what relative signal [%] value has been reported for 156 (RANPADY) [compound 156] ?
stdout: 12.2

* * *

Recorded relative signal [%] for the following substances
system: myasthenogenic antibody mAB 198; assay: Peptide microarray mimotope screen, binding of mAB 198 to linear and cyclic peptides (fluorescence readout); design: species or system rat; settings: linear mimotopes; binding of mAB 198, relative fluorescent signal after normalization against background
Report the value in % with no unit label.

Completed entries (count: 6):
stdin: Write down the reported relative signal [%] of 23 (NPADYGH) [compound 23] , test system: myasthenogenic antibody mAB 198.
stdout: 18.1

stdin: Write down the reported relative signal [%] of 73 (NPADYGI) [compound 73] , test system: myasthenogenic antibody mAB 198.
stdout: 8.0

stdin: Write down the reported relative signal [%] of 24 (RLNPADY) [compound 24] , test system: myasthenogenic antibody mAB 198.
stdout: 17.7

stdin: Write down the reported relative signal [%] of 74 (IDVRLRFNPAD) [compound 74] , test system: myasthenogenic antibody mAB 198.
stdout: 7.9

stdin: Write down the reported relative signal [%] of 15 (RFNPADY) [compound 15] , test system: myasthenogenic antibody mAB 198.
stdout: 21.8

stdin: Write down the reported relative signal [%] of 45 (NPADYGR) [compound 45] , test system: myasthenogenic antibody mAB 198.
stdout: 12.2

Next:
stdin: Write down the reported relative signal [%] of 61 (RWNPADYGH) [compound 61] , test system: myasthenogenic antibody mAB 198.
stdout: 9.4

stdin: Write down the reported relative signal [%] of 50 (RLYWNPADY) [compound 50] , test system: myasthenogenic antibody mAB 198.
stdout: 11.0

stdin: Write down the reported relative signal [%] of 8 (GSLRYNP) [compound 8] , test system: myasthenogenic antibody mAB 198.
stdout: 34.4

stdin: Write down the reported relative signal [%] of 81 (LRWNPADYHGI) [compound 81] , test system: myasthenogenic antibody mAB 198.
stdout: 7.2

stdin: Write down the reported relative signal [%] of 6 (WNPADYR) [compound 6] , test system: myasthenogenic antibody mAB 198.
stdout: 40.6

stdin: Write down the reported relative signal [%] of 56 (DVRLRFNPADY) [compound 56] , test system: myasthenogenic antibody mAB 198.
stdout: 10.0

stdin: Write down the reported relative signal [%] of 20 (RLHWNPADY) [compound 20] , test system: myasthenogenic antibody mAB 198.
stdout: 20.2

stdin: Write down the reported relative signal [%] of 31 (IDVRLRFNP) [compound 31] , test system: myasthenogenic antibody mAB 198.
stdout: 15.0

stdin: Write down the reported relative signal [%] of 63 (LRINPAD) [compound 63] , test system: myasthenogenic antibody mAB 198.
stdout: 9.2

stdin: Write down the reported relative signal [%] of 52 (GGGSLRRNPAD) [compound 52] , test system: myasthenogenic antibody mAB 198.
stdout: 10.6

stdin: Write down the reported relative signal [%] of 28 (LRYNPAD) [compound 28] , test system: myasthenogenic antibody mAB 198.
stdout: 15.9

stdin: Write down the reported relative signal [%] of 91 (HSLRWNPAD) [compound 91] , test system: myasthenogenic antibody mAB 198.
stdout: 6.6

stdin: Write down the reported relative signal [%] of 49 (SLRINPADY) [compound 49] , test system: myasthenogenic antibody mAB 198.
stdout: 11.0

stdin: Write down the reported relative signal [%] of 71 (GGGSLRFNPAD) [compound 71] , test system: myasthenogenic antibody mAB 198.
stdout: 8.1

stdin: Write down the reported relative signal [%] of 89 (SLRVNPADY) [compound 89] , test system: myasthenogenic antibody mAB 198.
stdout: 6.7
